For each of the compounds below, state its IC50.
target: Angiotensin II receptor (AT-1) type-1 (Rattus norvegicus, UniProt P29089+P25095); test: […] inhibitory concentration against Angiotensin II receptor, type 1 of rat adrenal membrane
Field format: number, assumed nM, no unit text.

For the compound CCc1nc2ccc(NC(=O)N(C)C(C)C)cc2c(=O)n1Cc1ccc(-c2ccccc2S(=O)(=O)NC(=O)COCC(C)C)cc1F , give its reported IC50.
2

For the compound CCc1nc2ccc(NC(=O)NC(C)C)cc2c(=O)n1Cc1ccc(-c2ccccc2S(=O)(=O)NC(=O)OCCC2CC2)cc1F , give its reported IC50.
0.64

For the compound CCc1nc2ccc(NC(=O)N(C)C(C)C)cc2c(=O)n1Cc1ccc(-c2ccccc2S(=O)(=O)NC(=O)OCCC(C)C)cc1F , give its reported IC50.
0.3

For the compound CCc1nc2ccc(NC(=O)c3ccccn3)cc2c(=O)n1Cc1ccc(-c2ccccc2S(=O)(=O)NC(=O)OCCC(C)C)cc1F , give its reported IC50.
1.3

For the compound CCCc1nc2ccc(NC(=O)N3CCOCC3)cc2c(=O)n1Cc1ccc(-c2ccccc2S(=O)(=O)NC(=O)OCCC(C)C)cc1F , give its reported IC50.
0.13

For the compound CCCc1nc2ccc(NC(=O)NC(C)C)cc2c(=O)n1Cc1ccc(-c2ccccc2S(=O)(=O)NC(=O)COCC(C)C)cc1F , give its reported IC50.
0.17

For the compound CCc1nc2ccc(NC(=O)N3CCOCC3)cc2c(=O)n1Cc1ccc(-c2ccccc2S(=O)(=O)NC(=O)OCCC(C)C)cc1F , give its reported IC50.
0.66

For the compound CCCCOC(=O)NS(=O)(=O)c1ccccc1-c1ccc(Cn2c(CC)nc3ccc(NC(=O)N4CCOCC4)cc3c2=O)c(F)c1 , give its reported IC50.
1.3

For the compound CCNC(=O)Nc1ccc2nc(CC)n(Cc3ccc(-c4ccccc4S(=O)(=O)NC(=O)c4ccccc4F)cc3F)c(=O)c2c1 , give its reported IC50.
3.9

For the compound CCc1nc2ccc(NC(=O)N(C)C(C)C)cc2c(=O)n1Cc1ccc(-c2ccccc2S(=O)(=O)NC(=O)OCCC2CC2)cc1F , give its reported IC50.
0.5

For the compound Cc1nc2ccc(NC(=O)N(C)C)cc2c(=O)n1Cc1ccc(-c2ccccc2S(=O)(=O)NC(=O)OCCC2CC2)cc1F , give its reported IC50.
2.3

For the compound CCCCc1nc2ccc(NC(=O)N(C)C(C)C)cc2c(=O)n1Cc1ccc(-c2ccccc2S(=O)(=O)NC(=O)OCCC(C)C)cc1F , give its reported IC50.
0.14

For the compound Cc1nc2ccc(NC(=O)N(C)C(C)C)cc2c(=O)n1Cc1ccc(-c2ccccc2S(=O)(=O)NC(=O)OCCC(C)C)cc1F , give its reported IC50.
0.58

For the compound CCCCc1nc2ccc(NC(=O)N(C)C(C)C)cc2c(=O)n1Cc1ccc(-c2ccccc2S(=O)(=O)NC(=O)OCCC2CC2)cc1F , give its reported IC50.
0.23

Source listed as ChEMBL document CHEMBL1150477.
